I'd be grateful if you could share measured TGI for these entries.
- Test system: SW-620 colon
- Measurement Protocol: NCI tumour cell line growth inhibition, 48 h

Qu. Lookup: TGI / SW-620 colon / Cc1cc(OP2(=O)NCc3ccncc3O2)ccc1Cl (stereo not given)
Ans. > 100 µM

Qu. Record CCOC(=O)NC(=O)c1cn(CCN(CCO)C(=O)NCCCCCCNC(=O)N(CCO)CCn2cc(C(=O)NC(=O)OCC)c(=O)[nH]c2=O)c(=O)[nH]c1=O : what is its TGI with SW-620 colon?
Ans. > 100 µM

Qu. Under SW-620 colon: TGI value of C/C(COc1ccc2oc(-c3ccccc3)cc(=O)c2c1)=N\O ?
Ans. > 100 µM

Qu. Notebook entry, SW-620 colon assay: TGI of CCOC(=O)C(=CNc1ccc(S(N)(=O)=O)cc1)C(=O)OCC = ?
Ans. > 100 µM

Qu. Please provide the recorded TGI for CN1/C(=C\N=O)C(C)(C)N(O)C1(C)C , tested on SW-620 colon.
Ans. > 100 µM

Qu. Which measured TGI belongs to CC(C)(C)OC(=O)NCC(c1c[nH]c2cc(Br)ccc12)c1c[nH]c2cc(Br)ccc12 , tested on SW-620 colon?
Ans. > 100 µM

Qu. Report TGI for CCN(CC)CCOCCOCC1(c2ccc(Cl)c(Cl)c2)CCCCC1 tested on SW-620 colon.
Ans. 21.9 µM

Qu. Missing value: TGI, SW-620 colon, entry O=C(NC1CCCCC1)NC12CC3CC(CC(F)(C3)C1)C2 . Fill in?
Ans. > 100 µM

Qu. Form: Entry = C=C[C@@H]1CCC/C=C/[C@@H]2C[C@H](O)C[C@H]2[C@H](O)/C=C/C(=O)O1 | System = SW-620 colon | TGI = ____
Ans. 1.57 µM

Qu. Look up TGI with SW-620 colon for this compound: CSc1c(C(N)=S)c(N)nn1-c1ccccc1
Ans. > 100 µM

###

- Tested on: HOP-62 NSCLC
- Measurement Protocol: NCI tumour cell line growth inhibition, 48 h
Would you kindly list TGI for each of these molecules?
Write the number in µM without appending the unit.

Qu. // query TGI value for entry N[C@@H](Cc1c[nH]c2ccccc12)C(=O)NC1CCN(Cc2c[nH]c3ccc(Cl)cc23)CC1
Ans. 24.8

Qu. Please give the measured TGI for this molecule: CCOc1cc2c(cc1O)C=C[C@@H]1[C@@H]2CC[C@]2(C)[C@@H](O)CC[C@@H]12
Ans. 49.3

Qu. Looking for the measured TGI of Cc1cccc2c(=O)c3c(sc12)c(NCCCN)nc1ccccc13 , can you help?
Ans. 2.79

Qu. GET /values?readout=TGI&item= NC(CCl)=NCC12CC3CC(CC(C3)C1)C2
Ans. 11.4

Qu. For the molecule shown here, C[C@]12CC[C@@H]3c4ccc(O)cc4CC[C@H]3[C@@H]1CC(Cc1ccccc1)(Cc1ccccc1)C2=O , give the reported TGI.
Ans. 32.9

Qu. Look up TGI for this molecule: COc1ccc2c(c1)c1ccc3c(c1n2C)C(=O)C=CC3=O
Ans. 66.5

Qu. # TGI lookup, item CO[C@H]1/C=C/O[C@@]2(C)Oc3c(C)c(O)c4c(O)c(c(/C=N/N5C(C)CN(Cc6ccc(C#N)cc6)CC5C)c(O)c4c3C2=O)NC(=O)/C(C)=C\C=C\[C@H](C)[C@H](O)[C@@H](C)[C@@H](O)[C@@H](C)[C@H](OC(C)=O)[C@@H]1C (some centres not stated)
Ans. 20.6

Qu. // query TGI value for entry COc1cc(OCCCN2CCCC2)ccc1Nc1ncc(Cl)c(Nc2ccccc2P(C)(C)=O)n1
Ans. 12.5

Qu. // returns reported TGI for input C[n+]1c2ccccc2n2c3ccccc3c(NCc3ccco3)c(C#N)c21
Ans. 11.4

Qu. For CC(C)(C)c1ccc(NS(=O)(=O)c2ccc(N)cc2)cc1 , what is its reported TGI?
Ans. 13.7

Qu. Value lookup for TGI; key = O=C(Nc1ccc(Cl)cc1)c1cc(NCc2cc(O)ccc2O)ccc1O
Ans. 51.7

###

- Tested on: OVCAR-8 ovarian
- Measurement Protocol: NCI tumour cell line growth inhibition, 48 h
Where a SMILES comes first, the peptide text is derived from it.
For each of the molecules below, state its TGI.

Qu. For C#Cc1cccc(Nc2nc(C)nc3cc(NC(=O)CCl)ccc23)c1 , what is its reported TGI?
Ans. 6.12 µM

Qu. # lookup: TGI of CC1=C(C(=O)O)N2C(=O)[C@@H](NC(=O)C(c3ccccc3)N3CSC(=S)N(C(C)C)C3)C2SC1 (stereo partly specified)
Ans. > 100 µM

Qu. Consider the molecule NC1=Nc2ccccc2Sc2nccn21 and give its measured TGI.
Ans. > 100 µM

Qu. Report TGI for COC(=O)Cc1cccc2c(=O)c(S(=O)(=O)NC(=O)Nc3ccc(Cl)cc3)c(-c3ccccc3)oc12 please.
Ans. > 100 µM

Qu. Could you tell me which TGI is on file for O=[N+]([O-])c1cc(I)cc(/C=N/NS(=O)(=O)c2ccc(F)cc2)c1O ?
Ans. 55.3 µM

Qu. Which TGI value is on record for C[C@H](CCC(=O)O)[C@H]1CC[C@H]2[C@@H]3[C@@H](O)C[C@@H]4C[C@H](O)CC[C@]4(C)[C@H]3C[C@H](O)[C@]12C ?
Ans. > 100 µM

Qu. Field request: TGI | item: CSc1nc2c(nc(N)n2C2OC(CO)C(O)C(O)C2O)c(=O)[nH]1 (stereo unspecified)
Ans. > 100 µM

Qu. Entry COc1nc2ccc(Cl)c(C(O)c3ccccc3)c2nc1OC (stereo unspecified) has what TGI?
Ans. > 100 µM

Qu. What does the record list as TGI for Cc1cc2[nH]c(=O)c3c4ncccc4cn3c2cc1C ?
Ans. > 100 µM

Qu. Field request: TGI | item: C=C(C)[C@@H]1C/C=C(/COC(C)=O)CC[C@H]2O[C@@]2(C)CC/C=C(\C)CC1
Ans. > 100 µM

Qu. Given the entry COc1cc(-c2n/c(=C\c3c(O)[nH]c4ccccc34)cc3c2=Nc2ccccc2-3)ccc1F , report its measured TGI.
Ans. 31.5 µM

Qu. Return reported TGI; argument: Clc1ccc(-c2nnc(-c3nn(-c4ccccc4)c4nc5ccccc5nc34)o2)cc1
Ans. > 100 µM

Qu. What value of TGI has been recorded for this entry: COc1cccc(/C=C2\N=C(Cl)OC2=O)c1O
Ans. > 100 µM

Qu. Look up TGI for this molecule: Oc1ccc(O)c(-n2cccn2)c1
Ans. > 100 µM

Qu. Requested read-out: TGI. Entry: CCN(CC)CCOCCOCC1(c2ccc(Cl)c(Cl)c2)CCCCC1
Ans. 28.8 µM

Qu. Suppose we examine the molecule COc1ccc(-c2c(NC(=O)Nc3ccc(Cl)c(C(F)(F)F)c3)cnn2-c2ccc(S(N)(=O)=O)cc2)cc1 ; what TGI value has been reported?
Ans. 13 µM

Qu. TGI for C/C1=C\[C@@H](C)C[C@@H](C)OC(=O)[C@@H](C)NC(=O)[C@H](Cc2ccc(O)c(Br)c2)N(C)C(=O)CNC(=O)[C@H](C)C1 ?
Ans. > 40.4 µM

Qu. For COc1ccc(-c2oc3ncnc(N)c3c2-c2ccc(NC(=O)Nc3cc(C(F)(F)F)ccc3F)cc2)cc1 , what is its reported TGI?
Ans. 3.73 µM

Qu. Reported TGI for N[C@@H](Cc1c[nH]c2ccccc12)C(=O)NC1CCN(Cc2c[nH]c3ccc(Cl)cc23)CC1 : what is it?
Ans. 29.6 µM

Qu. // TGI lookup, key: OCC1CC2C=CCC(C2)C1 (stereo unspecified)
Ans. > 100 µM

Qu. Need TGI of CCOC(=O)C(=CNc1ccc(S(N)(=O)=O)cc1)C(=O)OCC , thanks.
Ans. > 100 µM

Qu. Bench note: what TGI did Fc1ccccc1-c1cc(=S)c2cc3c(cc2[nH]1)OCO3 show?
Ans. > 100 µM

Qu. What value of TGI has been reported for the following molecule? Cc1cc(C)n(CN(CCCCO)Cn2nc(C)cc2C)n1
Ans. 41.7 µM

Qu. Item under review: CC1CN=C(N(C(=O)Nc2ccc(Cl)cc2)c2cccc(Cl)c2)S1 (stereo unspecified) . Reported TGI?
Ans. > 100 µM

Qu. What value of TGI has been reported for the following molecule? CCc1cc2c(cc1C(=O)CCC(=O)O)CC1(C2)Cc2cc(CC)c(C(=O)CCC(=O)O)cc2C1
Ans. > 100 µM

Qu. Entry under review: CCOP(=O)(OCC)/C(=C\n1ccc(=O)[nH]c1=S)C(=O)OC . Reported TGI?
Ans. > 100 µM

Qu. May I ask what TGI has been recorded for Cc1cc2c3c(nc2c2cc[nH]c(C)c12)CCCC3 ?
Ans. 4.96 µM

Qu. For the molecule shown here, O=C(O)CN1CCN2CCCCCCCCN(CC1)CCN(CC(=O)O)CC2 , give the reported TGI.
Ans. > 100 µM

Qu. Dear colleague, I am looking for the recorded TGI of the following molecule: CO[C@H]1/C=C/O[C@@]2(C)Oc3c(C)c(O)c4c(O)c(c(/C=N/N5C(C)CN(Cc6ccc(C#N)cc6)CC5C)c(O)c4c3C2=O)NC(=O)/C(C)=C\C=C\[C@H](C)[C@H](O)[C@@H](C)[C@@H](O)[C@@H](C)[C@H](OC(C)=O)[C@@H]1C (stereo partly specified)
Ans. 38.9 µM

Qu. What does the data say about its TGI? Entry: O=C([O-])c1ccccc1Nc1ccccc1C(=O)[O-].[OH3+].[Zn+2]
Ans. > 66.4 µM

Qu. Dear colleague, I am looking for the recorded TGI of the following molecule: [Mn+3].[O-][Cl+3]([O-])([O-])O.[O-]c1ccccc1C=NCCN1CC1.[O-]c1ccccc1C=NCCN1CC1
Ans. > 100 µM

Qu. Recorded TGI for O=C1C=CC(=O)c2c(O)c(NCCN3CCOCC3)c(Cl)c(O)c21 , please?
Ans. > 10 µM

Qu. Which TGI value belongs to CC(=O)NC(CS)C(=O)NC(CO)C(=O)NC(CO)C(=O)NC(Cc1c[nH]c2ccccc12)C(=O)N1CCCC1C(=O)NC(CO)C(=O)NC(Cc1c[nH]c2ccccc12)C(=O)NC(Cc1c[nH]cn1)C(=O)NC(CO)C(=O)NC(Cc1c[nH]c2ccccc12)C(=O)NCC(=O)NCC(=O)NC(C)C(=O)NC(CCC(N)=O)C(=O)NC(CCCCN)C(=O)NC(C)C(=O)NC(CCCNC(=N)N)C(=O)NC(CCCCN)C(N)=O (stereo unspecified) (Ac-CSSWPSWHSWGGAQKARK-NH2; configuration not given here) ?
Ans. > 50 µM

Qu. Would you mind telling me what TGI value was observed for Cn1nc(-c2ccccc2)c2c(/C=C/c3ccc(F)cc3)onc2c1=O ?
Ans. > 100 µM

Qu. # lookup: TGI of O=C1C2CCCC2N1Cc1ccccc1 (stereo unspecified)
Ans. > 100 µM

Qu. Please give the measured TGI for this molecule: CC1(C)N=C(N)N=C(N)N1c1cccc(CCCCc2ccc(Cl)c(S(=O)(=O)F)c2)c1
Ans. > 100 µM
